System: armyworms
Format: in vivo
Details: concentration 600 mg/kg
# Armyworm Mortality (%) binned as bottom end: < 20%; midrange: ≥ 20% and < 50%; top end: ≥ 50%

Record C[C@@H]1N[C@H](C(=O)NNC(=O)C2CCCC2)Cc2c1[nH]c1ccccc21 [Id-7] — which class?
midrange

Record Cc1nccc2c1[nH]c1cc(OC(=O)C(C)(C)C)ccc12 [Ia-8] — which class?
top end

Record C[C@@H]1N[C@H](C(=O)N/N=C/c2ccccc2)Cc2c1[nH]c1ccccc21 [Ic-1] — which class?
top end

Record O=C(O)/C=C/c1cc2c([nH]c3ccccc32)c(-c2cccnc2)n1 [Ia-16] — which class?
bottom end

Record C[C@@H]1N[C@H](C(=O)NCC2CCCO2)Cc2c1[nH]c1ccccc21 (some centres unmarked) [Ib-20] — which class?
top end

Record C[C@@H]1N[C@H](C(=O)NN=Cc2ccccn2)Cc2c1[nH]c1ccccc21 [Ic-17] — which class?
midrange

Record COc1ccccc1C=NNC(=O)[C@@H]1Cc2c([nH]c3ccccc23)[C@H](C)N1 [Ic-10] — which class?
midrange

Record COc1ccc(C=NNC(=O)[C@@H]2Cc3c([nH]c4ccccc34)[C@H](C)N2)cc1OC [Ic-11] — which class?
top end

Record CCOC(=O)C1Cc2c([nH]c3ccccc23)C(C)=N1 (centres unmarked) [Ib-14] — which class?
bottom end

Record Cc1nccc2c1[nH]c1cc(OC(=O)N(C)C)ccc12 [Ia-6] — which class?
midrange

Record COc1ccc2c3c([nH]c2c1)C(C)NCC3 (centres unmarked) [Tetrahydroharmine] — which class?
bottom end

Record C[C@@H]1N[C@H](C(=O)NN=Cc2ccc3cc(O)ccc3c2)Cc2c1[nH]c1ccccc21 [Ic-14] — which class?
midrange

Record C[C@@H]1N[C@H](C(=O)NN=Cc2cccs2)Cc2c1[nH]c1ccccc21 [Ic-20] — which class?
midrange

* * *

Test system: armyworms
Format: in vivo
Settings: concentration 600 mg/kg
OUTCOME_MEASURE: Armyworm Mortality (%)
Give just the number in %; leave the unit off.

Write down the reported Armyworm Mortality (%) of COc1ccc2c(c1)[nH]c1c(C)nccc12 [Harmine] , test system: armyworms.
20

Write down the reported Armyworm Mortality (%) of CC(=NNC(=O)[C@@H]1Cc2c([nH]c3ccccc23)[C@H](C)N1)C(C)(C)C [Ic-28] , test system: armyworms.
45

Write down the reported Armyworm Mortality (%) of C[C@@H]1N[C@H](C(=O)NNC(=O)c2ccccc2)Cc2c1[nH]c1ccccc21 [Id-4] , test system: armyworms.
10

Write down the reported Armyworm Mortality (%) of O=C(O)/C=C/c1cc2c([nH]c3ccccc32)c(-c2cccs2)n1 [Ia-15] , test system: armyworms.
15

Write down the reported Armyworm Mortality (%) of C[C@@H]1N[C@H](C(=O)NN=CC2CCCCC2)Cc2c1[nH]c1ccccc21 [Ic-25] , test system: armyworms.
45

Write down the reported Armyworm Mortality (%) of O=C(O)[C@@H]1Cc2c([nH]c3ccccc23)[C@H](c2ccccc2)N1 [Ib-5] , test system: armyworms.
50

Write down the reported Armyworm Mortality (%) of C[C@@H]1N[C@H](C(=O)NN=Cc2ncc[nH]2)Cc2c1[nH]c1ccccc21 [Ic-21] , test system: armyworms.
40

Write down the reported Armyworm Mortality (%) of COc1cccc(C=NNC(=O)[C@@H]2Cc3c([nH]c4ccccc34)[C@H](C)N2)c1 [Ic-9] , test system: armyworms.
35

Write down the reported Armyworm Mortality (%) of CCOC(=O)C1Cc2c([nH]c3ccccc23)CN1 (stereo not shown) [Ib-9] , test system: armyworms.
15

Write down the reported Armyworm Mortality (%) of Cc1nccc2c1[nH]c1cc(O)ccc12 [Harmol] , test system: armyworms.
50

Write down the reported Armyworm Mortality (%) of COc1ccc(C=NNC(=O)[C@@H]2Cc3c([nH]c4ccccc34)[C@H](C)N2)cc1 [Ic-8] , test system: armyworms.
20

Write down the reported Armyworm Mortality (%) of Cc1nccc2c1[nH]c1cc(OC(=O)[C@@H](NC(=O)OCc3ccccc3)C(C)C)ccc12 [Ia-9] , test system: armyworms.
5

Write down the reported Armyworm Mortality (%) of C[C@@H]1N[C@H](C(=O)NN=Cc2ccc(N(C)C)cc2)Cc2c1[nH]c1ccccc21 [Ic-3] , test system: armyworms.
25

Write down the reported Armyworm Mortality (%) of C[C@@H]1N[C@H](C(=O)O)Cc2c1[nH]c1ccccc21 [Ib-1] , test system: armyworms.
25

Write down the reported Armyworm Mortality (%) of Cc1nccc2c1[nH]c1c([N+](=O)[O-])cccc12 [Ia-4] , test system: armyworms.
10

Write down the reported Armyworm Mortality (%) of CCCC=NNC(=O)[C@@H]1Cc2c([nH]c3ccccc23)[C@H](C)N1 [Ic-23] , test system: armyworms.
15

Write down the reported Armyworm Mortality (%) of CCCCCC(=O)NNC(=O)[C@@H]1Cc2c([nH]c3ccccc23)[C@H](C)N1 [Id-5] , test system: armyworms.
5

Write down the reported Armyworm Mortality (%) of C[C@@H]1N[C@H](C(=O)NN=Cc2ccc([N+](=O)[O-])cc2)Cc2c1[nH]c1ccccc21 [Ic-4] , test system: armyworms.
30

Write down the reported Armyworm Mortality (%) of CCCCCCCC=NNC(=O)[C@@H]1Cc2c([nH]c3ccccc23)[C@H](C)N1 [Ic-24] , test system: armyworms.
45

Write down the reported Armyworm Mortality (%) of Cc1nc(/C=C/C(=O)O)cc2c1[nH]c1ccccc12 [Ia-14] , test system: armyworms.
25

Write down the reported Armyworm Mortality (%) of Cc1nccc2c1[nH]c1cc(OC(=O)NC(C)C)ccc12 [Ia-5] , test system: armyworms.
10

Write down the reported Armyworm Mortality (%) of C[C@@H]1N[C@H](C(=O)NN=CC(C)(C)C)Cc2c1[nH]c1ccccc21 [Ic-26] , test system: armyworms.
25

Write down the reported Armyworm Mortality (%) of C[C@@H]1N[C@H](C(=O)NN=Cc2ccc(Cl)cc2)Cc2c1[nH]c1ccccc21 [Ic-5] , test system: armyworms.
25

Write down the reported Armyworm Mortality (%) of C[C@@H]1N[C@H](C(=O)NCCO)Cc2c1[nH]c1ccccc21 [Ib-18] , test system: armyworms.
5

Write down the reported Armyworm Mortality (%) of C[C@@H]1N[C@H](C(=O)NNC(=O)c2cccc3nnsc23)Cc2c1[nH]c1ccccc21 [Id-1] , test system: armyworms.
35

Write down the reported Armyworm Mortality (%) of C[C@@H]1N[C@H](C(=O)NN)Cc2c1[nH]c1ccccc21 [Ib-15] , test system: armyworms.
20

Write down the reported Armyworm Mortality (%) of CCCCNC(=O)[C@@H]1Cc2c([nH]c3ccccc23)[C@H](C)N1 [Ib-16] , test system: armyworms.
65

Write down the reported Armyworm Mortality (%) of C[C@@H]1N[C@H](C(=O)NN=Cc2ccco2)Cc2c1[nH]c1ccccc21 [Ic-18] , test system: armyworms.
10

Write down the reported Armyworm Mortality (%) of C[C@@H]1N[C@H](C(=O)NC2CCCCC2)Cc2c1[nH]c1ccccc21 [Ib-17] , test system: armyworms.
45

Write down the reported Armyworm Mortality (%) of CCOC(=O)[C@@H]1Cc2c([nH]c3ccccc23)CN1 [Ib-7] , test system: armyworms.
5

Write down the reported Armyworm Mortality (%) of C[C@@H]1N[C@H](C(=O)NN=Cc2ccc(Cl)c(Cl)c2)Cc2c1[nH]c1ccccc21 [Ic-7] , test system: armyworms.
5

* * *

Test system: tobacco mosaic virus (TMV)
Test: Anti-TMV in vivo inactivation
Design: species or system tobacco mosaic virus (host Nicotiana tabacum L.cv.Xanthi NN)
Conditions: treatment dose 100 μg/mL
OUTCOME_MEASURE: Relative inhibition rate (%) In vivo inactivation
Give just the number in %; leave the unit off.

Using the record for O=C(O)/C=C/c1cc2c([nH]c3ccccc32)c(-c2cccnc2)n1 , report its Relative inhibition rate (%) In vivo inactivation.
0

Using the record for C[C@@H]1N[C@H](C(=O)NN=Cc2ccc(C(C)(C)C)cc2)Cc2c1[nH]c1ccccc21 , report its Relative inhibition rate (%) In vivo inactivation.
13.3

Using the record for CC(=O)Oc1ccc2c(c1)[nH]c1c(C)nccc12 , report its Relative inhibition rate (%) In vivo inactivation.
0

Using the record for Cc1nc(/C=C/C(=O)O)cc2c1[nH]c1ccccc12 , report its Relative inhibition rate (%) In vivo inactivation.
0

Using the record for C[C@@H]1N[C@H](C(=O)NNC(=O)C(C)(C)C)Cc2c1[nH]c1ccccc21 , report its Relative inhibition rate (%) In vivo inactivation.
12.8

Using the record for C[C@@H]1N[C@H](C(=O)NN=Cc2ccncc2)Cc2c1[nH]c1ccccc21 , report its Relative inhibition rate (%) In vivo inactivation.
8.8

Using the record for CCOC(=O)C1Cc2c([nH]c3ccccc23)CN1 (stereo not drawn) , report its Relative inhibition rate (%) In vivo inactivation.
16.9

Using the record for C[C@@H]1N[C@H](C(=O)NCC2CCCO2)Cc2c1[nH]c1ccccc21 (stereo partly drawn) , report its Relative inhibition rate (%) In vivo inactivation.
9.8

Using the record for CCOC(=O)[C@@H]1Cc2c([nH]c3ccccc23)CN1 , report its Relative inhibition rate (%) In vivo inactivation.
19.3

Using the record for CCOC(=O)[C@H]1Cc2c([nH]c3ccccc23)[C@@H](C)N1 , report its Relative inhibition rate (%) In vivo inactivation.
16.7

Using the record for C[C@@H]1N[C@H](C(=O)NN=Cc2ccc[nH]2)Cc2c1[nH]c1ccccc21 , report its Relative inhibition rate (%) In vivo inactivation.
20.2

Using the record for C[C@@H]1N[C@H](C(=O)NN=Cc2ccco2)Cc2c1[nH]c1ccccc21 , report its Relative inhibition rate (%) In vivo inactivation.
18.2
